These measurements were taken from patent US20230365590A1.

Items are presented alongside their recorded MRT.
- protocol: Repeated-dosing pharmacokinetics test
- Type: in vivo, B-hPD-1/hPD-L1 humanized female mice
- conditionsUsed: female, B-hPD-1/hPD-L1 (humanized), mouse, po; humanized mice, 50 mg/kg by gavage once a day for 12 days, plasma on day 12
reportedMetric: MRT (h)

> print(dat)
                                entrysmiles  reportedmetric  reportedvalue
1  COCC12CCC(CCN3CCc4c(nc(C(=O)Nc5cccc(-c6cccc(NC(=O)c7nc8c(n7C)CCN(CCC79CCC(C(=O)O)(CC7)C9)C8)c6Cl)c5Cl)n4C)C3)(CC1)C2             MRT             12
2  Cn1c(C(=O)Nc2cccc(-c3cccc(NC(=O)c4nc5c(n4C)CCN(CCC46CCC(C(=O)O)(CC4)C6)C5)c3Cl)c2Cl)nc2c1CCN(CCC13CCC(C(=O)O)(CC1)C3)C2             MRT            4.6
3  Cn1c(C(=O)Nc2cccc(-c3cccc(NC(=O)c4nc5c(n4C)CCN(CC46CCC(C(=O)O)(CC4)C6)C5)c3Cl)c2Cl)nc2c1CCN(CCO)C2             MRT            4.2
4  Cc1c(Nc2nccc3cc(CN4CC[C@@H](O)C4)cnc23)cccc1-c1cccc(-c2nc3cc(CN4CC[C@@H](C(=O)O)C4)cc(C#N)c3o2)c1C             MRT              5
